system: luciferase gene expression in HEK 293 cells in response to Comp. 004; experiment: Screen of riboswitch constructs with 12C6-1 variant aptamers (libraries N1-N5) against Comp. 004, luciferase in HEK 293 cells; format: cell-based, human; conditions: library N5 variant aptamers (L5, X16-X21 randomized) of 12C6-1 in riboswitch constructs; in response to Comp. 004 treatment; HEK 293 cells
measuredEndpoint: Fold (induction of luciferase gene expression)

- N5_1D11 (CTGGGGAGTCCT; chemistry not given here): 4.8 fold
- N5_1C3 (CTGGGGAGTCCT; chemistry not given here): 664.1 fold
- N5_1B8 (CTGGGGAGTCCT; chemistry not given here): 645.1 fold
- N5_1G10 (CTGGGGAGTCCT; chemistry not given here): 1000.2 fold
- N5_7B10 (CTGGGGAGTCCT; chemistry not given here): 1361.5 fold

###

test system: luciferase gene expression in HEK 293 cells in response to Comp. 004; experiment: Screen of riboswitch constructs with 12C6-1 variant aptamers (libraries N1-N5) against Comp. 004, luciferase in HEK 293 cells; type: cell-based, human; conditions: library N2 variant aptamers (J2-3, P3-J3-3a, J3a-2 randomized) of 12C6-1 in riboswitch constructs; in response to Comp. 004; HEK 293 cells
Please respond with y when measured Fold (induction of luciferase gene expression) is strictly beneath 1 fold, and with n in all other cases.

* N2_2G11 (DNA CTGGGGAGTCCTTCATGC; chemistry not given here) | y
* N2_2E10 (DNA CTGGGGAGTCCTTCATGC; chemistry not given here) | n
* N2_2G2 (DNA CTGGGGAGTCCTTCATGC; chemistry not given here) | n
* N2_2D3 (DNA CTGGGGAGTCCTTCATGC; chemistry not given here) | y
* N2_2G9 (CTGGGGAGTCCTTCATGC; chemistry not given here) | n
* N2_2D6 (DNA CTGGGGAGTCCTTCATGC; chemistry not given here) | n
* N2_2B7 (CTGGGGAGTCCTTCATGC; chemistry not given here) | n
* N2_2E8 (DNA CTGGGGAGTCCTTCATGC; chemistry not given here) | y
* N2_2B10 (CTGGGGAGTCCTTCATGC; chemistry not given here) | n

###

tested on: luciferase gene expression in HEK 293 cells in response to Comp. 004; assay: Screen of riboswitch constructs with 12C6-1 variant aptamers (libraries N1-N5) against Comp. 004, luciferase in HEK 293 cells; format: cell-based, human; details: library N1 (J2-4), HEK 293, 25 M [sic] Comp. 004
measuredEndpoint: Fold (induction of luciferase gene expression) (fold)

* N1_2F3 (CTGGGGAGTCCTTCATGCGGGGC; chemistry not given here) | 15.56
* N1_2E6 (CTGGGGAGTCCTTCATGCGGGGC; chemistry not given here) | 30.39
* N1_2F1 (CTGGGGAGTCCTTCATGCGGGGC; chemistry not given here) | 8.34
* N1_2F9 (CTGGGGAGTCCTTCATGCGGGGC; chemistry not given here) | 1.71
* N1_2F6 (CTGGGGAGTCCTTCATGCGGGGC; chemistry not given here) | 185.92
* N1_2E8 (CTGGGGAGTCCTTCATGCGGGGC; chemistry not given here) | 5.81

###

system: luciferase gene expression in HEK 293 cells in response to Comp. 004; experiment: Screen of riboswitch constructs with 12C6-1 variant aptamers (libraries N1-N5) against Comp. 004, luciferase in HEK 293 cells; format: cell-based, human; settings: library N5 variant aptamers (L5, X16-X21 randomized) of 12C6-1 in riboswitch constructs; in response to Comp. 004 treatment; HEK 293 cells
measuredEndpoint: Fold (induction of luciferase gene expression) (fold)

• N5_1A11 (CTGGGGAGTCCT; chemistry not given here) = 793.5
• N5_1B3 (CTGGGGAGTCCT; chemistry not given here) = 792.0
• N5_9C2 (DNA CTGGGGAGTCCT; chemistry not given here) = 1027.6
• N5_6A6 (CTGGGGAGTCCT; chemistry not given here) = 1024.4
• N5_7A5 (CTGGGGAGTCCT; chemistry not given here) = 785.5
